Where a name gives a salt, the structure may show the parent alone.
The next entries give measured IC50 for ENPP1 protein (Homo sapiens).
Numeric only. Scale: nM

As a guide, the following entries are already answered.
| molecule | system name | measurement unit | recorded measurement |
| --- | --- | --- | --- |
| COc1cc2ncnc(N3CCN(C4(CNS(N)(=O)=O)CC4)CC3)c2cc1OC | ENPP1 protein (Homo sapiens) | nM | 55.6 |
| COc1ccc2c(N3CCC(C(C)CNS(N)(=O)=O)CC3)ccnc2c1 (centres unmarked) | ENPP1 protein (Homo sapiens) | nM | 250 |
| COc1cc2nccc(N3CCN(C4(CNS(N)(=O)=O)CC4)CC3)c2cc1OC | ENPP1 protein (Homo sapiens) | nM | 23.7 |
| COCCOc1cc2c(N3CCC(C(C)CNS(N)(=O)=O)CC3)ccnc2cc1OC (centres unmarked) [Compound I-10, formate salt] | ENPP1 protein (Homo sapiens) | nM | 156 |
| CCC(CNS(N)(=O)=O)C1CCN(c2ncnc3cc(OC)c(OC)cc23)CC1 (centres unmarked) [Compound I-25, formate salt] | ENPP1 protein (Homo sapiens) | nM | 5.05 |

**Q:** Give its IC50 value. Item: CNS(=O)(=O)NCC(C)C1CCN(c2ccnc3cc(OC)c(OC)cc23)CC1 (centres unmarked)
**A:** 3480

**Q:** Thanks! And COc1cc2nccc(N3CCC(C(C)CN(C4CC4)S(N)(=O)=O)CC3)c2cc1OC (centres unmarked) [Compound I-16, formate salt] ?
**A:** 409

**Q:** Thanks! And COc1cc2nccc(N3CCC(N(C4CC4)S(N)(=O)=O)CC3)c2cc1OC [Compound I-24, formate salt] ?
**A:** 953

###

system name: ENPP1 protein (Homo sapiens, UniProt P22413)
Sequence (P22413 1-925): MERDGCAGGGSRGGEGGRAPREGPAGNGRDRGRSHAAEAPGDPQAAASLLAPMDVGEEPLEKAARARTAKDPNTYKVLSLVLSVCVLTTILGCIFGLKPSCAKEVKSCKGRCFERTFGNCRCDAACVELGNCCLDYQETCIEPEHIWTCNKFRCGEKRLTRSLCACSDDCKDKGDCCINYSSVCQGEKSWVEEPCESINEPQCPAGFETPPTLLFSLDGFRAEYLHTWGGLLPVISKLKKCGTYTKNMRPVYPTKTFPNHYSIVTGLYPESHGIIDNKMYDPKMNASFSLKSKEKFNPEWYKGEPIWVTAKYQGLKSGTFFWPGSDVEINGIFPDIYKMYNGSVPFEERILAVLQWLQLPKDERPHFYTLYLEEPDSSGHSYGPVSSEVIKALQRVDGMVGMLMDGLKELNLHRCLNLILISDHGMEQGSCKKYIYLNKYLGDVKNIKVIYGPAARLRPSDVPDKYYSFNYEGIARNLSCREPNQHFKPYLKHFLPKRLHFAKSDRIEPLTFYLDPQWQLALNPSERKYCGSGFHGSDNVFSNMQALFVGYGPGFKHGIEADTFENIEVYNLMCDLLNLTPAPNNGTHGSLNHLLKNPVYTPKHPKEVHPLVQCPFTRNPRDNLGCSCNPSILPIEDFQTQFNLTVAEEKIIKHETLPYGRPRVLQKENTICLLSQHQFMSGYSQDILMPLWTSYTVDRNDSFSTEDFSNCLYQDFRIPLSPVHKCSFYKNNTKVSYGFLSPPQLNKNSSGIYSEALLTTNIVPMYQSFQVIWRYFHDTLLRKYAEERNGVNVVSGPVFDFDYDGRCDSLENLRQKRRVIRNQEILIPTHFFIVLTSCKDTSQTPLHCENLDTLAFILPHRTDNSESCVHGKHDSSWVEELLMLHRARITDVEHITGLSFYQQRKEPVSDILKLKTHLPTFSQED
Where a name gives a salt, the structure may show the parent alone.
Recorded log10 of IC50 for the following molecules
Values reflect log10 of reported IC50 (nM).

| molecule | property label | recorded measurement |
| --- | --- | --- |
| COc1ccc(OC)c(S(=O)(=O)Nc2cnc3ccccc3c2)c1 | log10 of IC50 | 3.71 |

**Q:** Write down the reported log10 of IC50 of COc1cc2ncnc(N3CCC(C4(CNS(N)(=O)=O)CC4)CC3)c2cc1OC [Compound I-27, formate salt] , test system: ENPP1 protein (Homo sapiens, UniProt P22413).
**A:** 1.06

**Q:** Thanks! And CCC(CNS(N)(=O)=O)C1CCN(c2ccnc3cc(OC)c(OC)cc23)CC1 (stereo not drawn) ?
**A:** 0.66

###

The next entries give measured IC50 for UniProtKB P22413.
Counter-ions that a name gives are not always drawn.
Numeric only. Scale: nM

As a guide, the following entries are already answered.
| compound | measurement unit | IC50 |
| --- | --- | --- |
| COc1cc2ncnc(N3CCC(NS(N)(=O)=O)CC3)c2cc1OC [Compound I-29, formate salt] | nM | 420 |
| COc1cc2ncnc(N3CCC(C(C)(C)CNS(N)(=O)=O)CC3)c2cc1OC [Compound I-26, formate salt] | nM | 2.39 |
| COc1cc2nccc(N3CCC(C(C)CNS(C)(=O)=O)CC3)c2cc1OC (stereo not shown) [Compound I-19] | nM | 3810 |

Consider the additional compound presented here.
**Q:** Give its IC50 value. Item: COc1cc2ncnc(N3CCC(N(C4CC4)S(N)(=O)=O)CC3)c2cc1OC [Compound I-30]
**A:** 5610

###

system name: ENPP1 protein (Homo sapiens, UniProt P22413)
Sequence (P22413 1-925): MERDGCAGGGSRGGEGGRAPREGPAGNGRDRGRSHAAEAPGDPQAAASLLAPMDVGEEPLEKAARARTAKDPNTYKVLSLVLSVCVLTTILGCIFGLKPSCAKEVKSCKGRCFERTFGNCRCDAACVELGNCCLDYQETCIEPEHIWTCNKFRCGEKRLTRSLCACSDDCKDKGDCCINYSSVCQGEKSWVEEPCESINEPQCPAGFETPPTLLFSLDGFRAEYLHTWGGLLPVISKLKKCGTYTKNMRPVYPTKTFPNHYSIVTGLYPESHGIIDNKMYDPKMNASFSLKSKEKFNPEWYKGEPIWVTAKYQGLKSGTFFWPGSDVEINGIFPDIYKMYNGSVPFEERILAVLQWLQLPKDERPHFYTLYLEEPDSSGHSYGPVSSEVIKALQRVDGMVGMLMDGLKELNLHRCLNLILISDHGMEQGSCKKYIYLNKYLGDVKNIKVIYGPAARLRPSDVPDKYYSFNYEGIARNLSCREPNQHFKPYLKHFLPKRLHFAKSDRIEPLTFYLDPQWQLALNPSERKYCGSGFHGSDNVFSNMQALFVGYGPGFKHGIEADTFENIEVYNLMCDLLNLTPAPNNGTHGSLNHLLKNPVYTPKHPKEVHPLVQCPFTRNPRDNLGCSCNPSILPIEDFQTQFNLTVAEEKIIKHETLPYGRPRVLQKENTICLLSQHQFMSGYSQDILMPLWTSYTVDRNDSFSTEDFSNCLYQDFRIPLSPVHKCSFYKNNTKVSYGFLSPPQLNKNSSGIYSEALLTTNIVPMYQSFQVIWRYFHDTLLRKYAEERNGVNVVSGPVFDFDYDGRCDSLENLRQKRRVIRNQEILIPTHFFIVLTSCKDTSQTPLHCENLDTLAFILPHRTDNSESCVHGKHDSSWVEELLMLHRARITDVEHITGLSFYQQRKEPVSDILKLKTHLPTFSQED
Where a name gives a salt, the structure may show the parent alone.
property label: pIC50
Quick note: pIC50 values are minus log10 of concentrations in mol/L.

As a guide, the following entries are already answered.
| compound | pIC50 |
| --- | --- |
| COc1cc2nccc(N3CCN(C(C)CNS(N)(=O)=O)CC3)c2cc1OC (centres unmarked) [Compound I-20, formate salt] | 7.86 |
| COc1cc2nccc(N3CCC(NS(N)(=O)=O)CC3)c2cc1OC [Compound I-23, formate salt] | 6.05 |
| COc1cc2nccc(N3CCC(C(C)(C)CNS(N)(=O)=O)CC3)c2cc1OC | 7.45 |
| COc1cc2nccc(N3CCC(C(C)CNS(N)(=O)=O)CC3)c2cc1O (centres unmarked) [Compound I-09, formate salt] | 5.73 |
| COc1cc2nccc(N3CCN(CCNS(N)(=O)=O)[C@H](C)C3)c2cc1OC [Compound I-21, formate salt] | 6.46 |

**Q:** Give its pIC50 value. Item: COc1ccc2nccc(N3CCC(C(C)CNS(N)(=O)=O)CC3)c2c1 (centres unmarked)
**A:** 6.65

**Q:** Thanks! And `COc1cc2ncnc(N3CCN(C4(CNS(N)(=O)=O)CC4)CC3)c2cc1OCF` ?
**A:** 6.88

**Q:** Thanks! And COc1cc2nccc(N3CCC(C4CCCN(S(N)(=O)=O)C4)CC3)c2cc1OC (centres unmarked) [Compound I-17, formate salt] ?
**A:** 7.12

From: patent US11407729B2
